From: patent US12084430B2

Reported IC50, UniProt:P10721.
Sequence (P10721 26-976, species assumed): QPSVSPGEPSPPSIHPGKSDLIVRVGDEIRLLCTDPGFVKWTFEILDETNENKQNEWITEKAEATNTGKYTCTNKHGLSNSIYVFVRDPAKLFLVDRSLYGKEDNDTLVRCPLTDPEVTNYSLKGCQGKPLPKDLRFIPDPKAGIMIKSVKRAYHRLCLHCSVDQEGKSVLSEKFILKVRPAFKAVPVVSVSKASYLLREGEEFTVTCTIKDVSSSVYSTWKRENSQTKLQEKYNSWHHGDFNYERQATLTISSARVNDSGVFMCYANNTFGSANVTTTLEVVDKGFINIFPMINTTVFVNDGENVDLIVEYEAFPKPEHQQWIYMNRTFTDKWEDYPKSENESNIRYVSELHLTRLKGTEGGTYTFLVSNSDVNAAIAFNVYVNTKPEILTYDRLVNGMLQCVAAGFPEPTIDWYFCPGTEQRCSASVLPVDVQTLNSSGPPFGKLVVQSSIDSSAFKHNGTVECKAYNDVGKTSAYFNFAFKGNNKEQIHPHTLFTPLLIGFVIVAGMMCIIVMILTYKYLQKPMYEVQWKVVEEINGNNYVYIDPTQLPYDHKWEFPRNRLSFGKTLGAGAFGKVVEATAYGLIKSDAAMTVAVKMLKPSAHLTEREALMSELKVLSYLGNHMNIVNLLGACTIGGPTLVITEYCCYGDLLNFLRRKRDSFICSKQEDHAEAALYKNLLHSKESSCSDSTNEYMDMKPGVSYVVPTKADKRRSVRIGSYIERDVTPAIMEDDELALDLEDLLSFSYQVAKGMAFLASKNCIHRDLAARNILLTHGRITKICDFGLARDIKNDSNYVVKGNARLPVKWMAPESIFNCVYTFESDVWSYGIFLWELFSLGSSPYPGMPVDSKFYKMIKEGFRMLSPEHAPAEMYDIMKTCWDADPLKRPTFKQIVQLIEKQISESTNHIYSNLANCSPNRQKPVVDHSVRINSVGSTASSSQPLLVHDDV

Answered examples (3):
[2H]C([2H])([2H])n1c(=O)n([C@@H]2CC[C@@H](NC(=O)OC)C2)c2c3c(-c4ccc5c(c4)COC5(C)C)c(-c4cn(CC(F)F)nc4F)[nH]c3ncc21
> 2.5 µM
[2H]C([2H])([2H])Oc1ccc(-c2c(-c3cn(C([2H])([2H])[2H])nc3F)[nH]c3ncc4c(c23)n([C@@H]2CC[C@@H](NC(=O)OC)C2)c(=O)n4C([2H])([2H])[2H])cc1
0.25 to 1.25 µM
[2H]C([2H])([2H])n1cc(-c2[nH]c3ncc4c(c3c2-c2ccc3c(cnn3CC(F)F)c2)n([C@@H]2CC[C@@H](NC(=O)OC)C2)c(=O)n4C([2H])([2H])[2H])c(F)n1
0.25 to 1.25 µM

// IC50 value for "[2H]C([2H])([2H])n1ncc2cc(-c3c(-c4cn(C([2H])([2H])C([2H])([2H])[2H])nc4F)[nH]c4ncc5c(c34)n([C@@H]3CC[C@@H](NC(=O)OC)C3)c(=O)n5C([2H])([2H])[2H])ccc21" : 0.25 to 1.25 µM

Value of measured IC50 for the entry "[2H]C([2H])([2H])n1cc(-c2[nH]c3ncc4c(c3c2-c2ccc3c(cnn3CC(F)F)c2)n([C@@H]2CC[C@@H](NC(=O)OC)C2)c(=O)n4C)c(F)n1" : 1.25 to 2.5 µM
